These entries and their values trace back to ChEMBL document CHEMBL4689842.

Tested on: HEK-293T
Assay: Multiplex assay against HEK293T
Type: toxicity, cell-based
Conditions: human, 24 h, 10 µM, compound concentration 10 uM, replicate 2
Provide the recorded Population Mitochondria Different-Phenotype (%) for the entries that follow.
Give the number; % is assumed, so skip it.

Query :: Requested field: Population Mitochondria Different-Phenotype (%). Item: CNC(=O)c1cc(Oc2ccc(NC(=O)Nc3cc(C(C)(C)C)nn3-c3ccc4ncccc4c3)c(F)c2)ccn1
Result :: 63

Query :: And what about the molecule CCCn1c(=O)c2[nH]c(C34CC5CC(CC3C5)C4)nc2n(CCC)c1=O ?
Result :: 75

Query :: Can you handle Cl.Cl.NC1(c2ccc(-c3nc4ccn5c(=O)[nH]nc5c4cc3-c3ccccc3)cc2)CCC1 next?
Result :: 20

Query :: Could you do the same for COc1ccc(NS(=O)(=O)c2sc3ccc(Cl)cc3c2C)cc1N1CCNCC1.Cl , please?
Result :: 97

Query :: Let us now turn to Cl.Cl.Nc1ncnc2c1c(-c1cccc(OCc3ccccc3)c1)cn2[C@H]1C[C@@H](CN2CCC2)C1
Result :: 89

Query :: Try this molecule next: CC(C)N1CCC(C)(C)c2cc(C#Cc3ccc(C(=O)O)cc3)ccc21
Result :: 6

Query :: What would you report for c1ccc2oc(-c3csc(C4CCN(Cc5nc6ncccc6[nH]5)CC4)n3)cc2c1 ?
Result :: 2

Query :: Then what about the molecule CCOc1cc(N2CCC(O)CC2)ccc1Nc1ncc2c(n1)N(C1CCCC1)CCC(=O)N2C ?
Result :: 0

Query :: Would you kindly repeat that for N#Cc1cnc(Nc2cc(NC[C@H]3CNCCO3)c(C(F)(F)F)cn2)cn1 ?
Result :: 17

----------
Test system: U2OS
Experiment: Incucyte cell viability with U2OS; further: filed as whole numbers so only -1 and 0 and 1 occur
Type: toxicity, cell-based
Conditions: human, 24 h, 10 µM, compound concentration 10 uM, replicate number 1, timepoint 24 hours
endpoint label: Growth Rate
The reply should be a number, written without any unit.

Query :: Please report the recorded Growth Rate for C[C@@H]1CN(c2cc(-c3nn(C)c4ccc(OC5(C)CC5)cc34)ncn2)C[C@H](C)O1 .
Result :: 0

Query :: One more compound: CC(=O)c1cc(-c2cc(C(=O)NC3CC3)ccc2C)c2ncccn12
Result :: 0

Query :: Try the compound Cl.Cl.Nc1ncnc2c1c(-c1cccc(OCc3ccccc3)c1)cn2[C@H]1C[C@@H](CN2CCC2)C1
Result :: 0

Query :: Follow-up item: N#Cc1c(N)nc(SCC(N)=O)c(C#N)c1-c1ccc(OCC2CC2)cc1
Result :: 1

Query :: Try the compound CCCCN(CCCC)C(=O)CN1C[C@@H](c2cc(OC)c3c(c2)OCO3)[C@H](C(=O)O)[C@H]1CC(C)(C)CCC.Cl
Result :: 0

Query :: Do the same for CC(C)Oc1ccc(-c2nn([C@@H](C)c3oc4ccc(F)cc4c(=O)c3-c3cccc(F)c3)c3ncnc(N)c23)cc1F please
Result :: 0

Query :: How about N#Cc1ccccc1OCC(O)CNCCNC(=O)Nc1ccccc1 (stereo not drawn) ?
Result :: 1

Query :: Can you check O=C(NOC[C@H](O)CO)c1ccc(F)c(F)c1Nc1ccc(I)cc1F next?
Result :: 0

----------
Please go through the items and note down their Population Membrane Permeable-Phenotype (%).
System: HEK-293T
Assay: Multiplex assay against HEK293T
Type: toxicity, cell-based
Conditions: human, 12 h, 1 µM, compound concentration 1 uM, replicate 1
Write the answer as a number in %, unit excluded.

Query :: # get_value(readout= Population Membrane Permeable-Phenotype (%), system= HEK-293T) for COc1cc2c(NC3CCN(C(C)C)CC3)nc(N3CCC(F)(F)CC3)nc2cc1OCCCN1CCCC1
Result :: 0

Query :: What do you get for Nc1nc2c(c(N3CCNCC3)n1)CCC1=C2[C@@H]2CCCC[C@@H]2O1 ?
Result :: 3

Query :: Lookup CN(C)C/C=C/C(=O)Nc1cc2c(Nc3ccc(F)c(Cl)c3)ncnc2cc1O[C@H]1CCOC1.O=C(O)/C=C\C(=O)O.O=C(O)/C=C\C(=O)O [AFATINIB DIMALEATE]
Result :: 5

Query :: Now this one: O=C(O)c1ccc2cc(-c3ccc(O)c(C45CC6CC(CC(C6)C4)C5)c3)ccc2c1
Result :: 1

Query :: Another compound to look at: N#Cc1cnc(Nc2cc(NC[C@H]3CNCCO3)c(C(F)(F)F)cn2)cn1
Result :: 3

Query :: How about this compound: CN(C)CCOc1ccc(-c2nc(-c3ccncc3)c(-c3ccc4c(c3)CC/C4=N\O)[nH]2)cc1
Result :: 30

Query :: Same lookup for CCC(=O)O[C@]1(C(=O)SCF)[C@H](C)C[C@H]2[C@@H]3C[C@H](F)C4=CC(=O)C=C[C@]4(C)[C@@]3(F)[C@@H](O)C[C@@]21C [FLUTICASONE PROPIONATE] , please.
Result :: 0

----------
Field: Population Normal (%). Provide a value for each of the molecules that follow.
System: U2OS
Experiment: Multiplex assay against U2OS
Type: toxicity, cell-based
Conditions: human, 48 h, 1 µM, compound concentration 1 uM, replicate 1
I only need the number, in %, no unit after it.

Query :: Would you kindly share the measured Population Normal (%) for O=C(O)c1ccc2cc(-c3ccc(O)c(C45CC6CC(CC(C6)C4)C5)c3)ccc2c1 [O-DEMETHYLATED ADAPALENE] ?
Result :: 92

Query :: # iterate: Cc1nc(Cc2cccc(C(F)(F)F)c2)sc1-c1ccc(C(N)=O)nc1 [TP-024n]
Result :: 96

Query :: Another: Cc1cc2c(cc1N1C(=O)c3cccc4c(CCCO)ccc(c34)C1=O)n(C)c(=O)n2C
Result :: 96

Query :: Now give it for Nc1ccc(C(=O)Nc2cccc(-c3nc(N4CCOCC4)c4oc5ncccc5c4n3)c2)cn1 too.
Result :: 90

Query :: How about this molecule: CCCn1c(=O)c2[nH]c(C34CC5CC(CC3C5)C4)nc2n(CCC)c1=O [ROLOFYLLINE]
Result :: 95

Query :: What do we get for CCn1c(-c2nonc2N)nc2cnc(Oc3cccc(NC(=O)c4ccc(OCCN5CCOCC5)cc4)c3)cc21 [GSK-269962A] ?
Result :: 95

Query :: Can you handle Nc1nc2c(c(N3CCNCC3)n1)CCC1=C2[C@@H]2CCCC[C@@H]2O1 next?
Result :: 94

Query :: Do the same for COc1cc2c(NC3CCN(C(C)C)CC3)nc(N3CCC(F)(F)CC3)nc2cc1OCCCN1CCCC1 please
Result :: 89

Query :: Same question for Cl.Cl.Nc1ncnc2c1c(-c1cccc(OCc3ccccc3)c1)cn2[C@H]1C[C@@H](CN2CCC2)C1 please.
Result :: 97

Query :: What about this molecule? CCC(=O)O[C@]1(C(=O)SCF)[C@H](C)C[C@H]2[C@@H]3C[C@H](F)C4=CC(=O)C=C[C@]4(C)[C@@]3(F)[C@@H](O)C[C@@]21C [FLUTICASONE PROPIONATE]
Result :: 97

Query :: Same question for CNc1oc(-c2cccc3ccccc23)nc1C#N please.
Result :: 85

Query :: Okay, and CC(=O)c1cc(-c2cc(C(=O)NC3CC3)ccc2C)c2ncccn12 ?
Result :: 97

Query :: And the next one, CCc1cc2c(cc1CC)CC(NC[C@H](O)c1ccc(O)c3[nH]c(=O)ccc13)C2 [INDACATEROL] ?
Result :: 95

----------
I'd appreciate it if you could supply Growth Rate values for the items below.
System: Fibroblast
Assay: Incucyte cell viability with human fibroblast; further: filed as whole numbers so only -1 and 0 and 1 occur
Type: toxicity, cell-based
Settings: 18 h, 10 µM, compound concentration 10 uM, replicate number 1, timepoint 18 hours

Query :: # lookup: Growth Rate of COc1cc(N2CCC(N(C)C)CC2)ccc1Nc1ncc(Cl)c(Nc2ccccc2P(C)(C)=O)n1
Result :: 0

Query :: Then what about the compound CO[C@H]1/C=C/O[C@@]2(C)Oc3c(C)c(O)c4c(O)c(c(/C=N/N5CCN(C)CC5)c(O)c4c3C2=O)NC(=O)/C(C)=C\C=C\[C@H](C)[C@H](O)[C@@H](C)[C@@H](O)[C@@H](C)[C@H](OC(C)=O)[C@@H]1C ?
Result :: 0

Query :: Another: CCN1CCN(Cc2ccc(NC(=O)c3ccc(C)c(Oc4ccnc5[nH]ccc45)c3)cc2C(F)(F)F)CC1.Cl.Cl.Cl.O
Result :: 0

Query :: And for Cc1cc(NC(=O)Nc2ccc(N(C)C)cc2)c2cc(F)cc(F)c2n1 ?
Result :: 1

Query :: // next record Cc1cn(-c2cc(NC(=O)c3ccc4c(c3)CN(c3cncnc3)C[C@@H]4C)cc(C(F)(F)F)c2)cn1
Result :: 0

Query :: Same thing, different compound: NS(=O)(=O)c1cc(NC(=O)C2(c3ccccc3Cl)CC2)ccc1Oc1cccc(Cl)c1
Result :: 1

Query :: How about O=C(NC[C@H](O)CN1CCc2ccccc2C1)c1ccnc(NC2CCC2)c1 ?
Result :: 0

Query :: What do we get for CCCCN(CCCC)C(=O)CN1C[C@@H](c2cc(OC)c3c(c2)OCO3)[C@H](C(=O)O)[C@H]1CC(C)(C)CCC.Cl ?
Result :: 0

Query :: Another compound to check: COc1cc2c(Nc3ccc(NC(=O)c4ccccc4)cc3)ncnc2cc1OCCCN1CCOCC1
Result :: 0

Query :: Subsequent entry: CCC(=O)N[C@@H]1CC[C@H](C(=O)N(C)c2ccc(-c3nc4ccccc4o3)cc2)C1
Result :: 0

Query :: What do we get for N#Cc1cnc(Nc2cc(NC[C@H]3CNCCO3)c(C(F)(F)F)cn2)cn1 ?
Result :: 1

Query :: Query C1=N/C2=N/c3ccc(OCCN4CCCC4)c(c3)COC/C=C\COCc3cccc(c3)C(=C1)N2 next
Result :: 0

Query :: Now this one: CS(=O)(=O)N1CCN(Cc2cc3nc(-c4cccc5[nH]ncc45)nc(N4CCOCC4)c3s2)CC1
Result :: 0

Query :: Moving on to the next compound: CCCCN(CCCC)C(=O)CN1C[C@@H](c2ccc3c(c2)OCO3)[C@H](C(=O)O)[C@H]1c1ccc(OC)cc1
Result :: 1

Query :: Can you check CC(C)Oc1ccc(-c2nn([C@@H](C)c3oc4ccc(F)cc4c(=O)c3-c3cccc(F)c3)c3ncnc(N)c23)cc1F next?
Result :: 1

Query :: Entry to check: CCCn1c(=O)c2[nH]c(C34CC5CC(CC3C5)C4)nc2n(CCC)c1=O
Result :: 0
